Kindly state viscosity for each of the entries shown.
Test conditions: 323.15 K; 100 kPa; Liquid; Concentric cylinders viscometry
Answers are plain numbers, in mPa·s.

compound="CCCCn1cc[n+](C)c1.N#CN=C=[N-] [1-butyl-3-methylimidazolium dicyanamide]" experimental_value=13.38
compound="CCCCn1cc[n+](C)c1.COP(=O)([O-])OC [1-butyl-3-methyl-1H-imidazolium dimethylphosphate]" experimental_value=133.37
compound="CCCCn1cc[n+](C)c1.N#C[S-] [1-butyl-3-methylimidazolium thiocyanate]" experimental_value=23.49

Can you give me viscosity for all of these, one by one?
1. CC(=O)[O-].CCCCn1cc[n+](C)c1 [1-butyl-3-methylimidazolium acetate]
2. CCCCn1cc[n+](C)c1.F[B-](F)(F)F [1-butyl-3-methylimidazolium tetrafluoroborate]

Output line:
66.07
35.89
